B1: Hairpin Ribozyme (parent)
chain: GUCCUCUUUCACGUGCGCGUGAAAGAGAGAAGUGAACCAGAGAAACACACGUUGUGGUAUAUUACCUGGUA

# Variants of: B1
# procedure_text: self-cleavage, relative activity (ratio to wild type); higher = more cleavage; co-transcriptional
property_name: self-cleavage
Please give the numeric answer without any surrounding text.

Task: Name the reported self-cleavage value associated with the variant GACCUCUUUCACGUGCGCGUGAAAGAGAGAAGUGAACCAGCGAAACACACGUUGUGGUAUAUUACCUGGUA [U2A A41C]
Output: 0.379

Task: // repeat for GUCCUCUUUCACGUUCGCGUGAAAGAGAGAAGUGAACCGGAGAAACACACGUUGUGGUAUAUUACCUGGUA [G15U A39G] and report
Output: 0.245

Task: Repeat with GUCCUCUUUCACGUGCGCGUGAAAGAGAGAAGUGUACCAGAGAAACACAUGUUGUGGUAUAUUACCUGGUA [A35U C50U]
Output: 0.18

Task: Next variant up: GUCCUCUUUCACGUGCGCGUGAAAGAGAGAAGUGAACCAGAGAAACCCACGUUGAGGUAUAUUACCUGGUA [A47C U55A]
Output: 0.195

Task: // next record GUCCUCUUUCACGUGCGCGUUAAAGAGAGAAGUGAACCAGAGAAACACACGUUGAGGUAUAUUACCUGGUA [G21U U55A]
Output: 0.227

Task: // query: GUCCUCUUUCACGUGCGCGUGAAAGAGAGAAGUCAACCAGAGAAACACACGUUGUGGUAUCUUACCUGGUA [G34C A61C]
Output: 0.733

Task: Queued: GUCCUCUUUCACGUGCGGGUGAAAGAGAGAAGUGAACCAGAGAAACACACGUUGUGGUAUGUUACCUGGUA [C18G A61G]
Output: 0.152

Task: Also check GUCCUCUUUCACGUGCGCGUGAAAGAGAGAAGUGAACCAGAGAAGCACACAUUGUGGUAUAUUACCUGGUA [A45G G51A]
Output: 0.161

Task: Continue with GUCCUCUUUCACGUGCGCGUGAAAGAGGGAAGUGAACCAGAGAAACACACGUUGUGGUAUAGUACCUGGUA [A28G U62G]
Output: 0.183

Task: Okay, and GUCCUCUUUCACGUGCGCGUGAAAGAGAGAAGUGAACCAGAGAAACACUCGUUGUGGUAUAUCACCUGGUA [A49U U63C] ?
Output: 0.172

Task: One more variant: GUCCUCUUUCACGUGCGCGUGAAAGAGAGAAGUGAACCAGAGAAACACGCGUUGUGGUAUAUUACUUGGUA [A49G C66U]
Output: 0.258

Task: Next entry: GUCCUCUUUCACGUGCGCGUGAAACAGAGAAGUGAACCAGAUAAACACACGUUGUGGUAUAUUACCUGGUA [G25C G42U]
Output: 0.182

Task: Same for GUCCUCUUUCACGUGCGCGUGAAAGAAAGAAGUGAACCAGAGAAACACACGUUGUGGUAUAUUACUUGGUA [G27A C66U]
Output: 0.13

Task: Again, but for GGCCUCUUUCACGUGCGCGUGAAAGAGAGAAGUGAACCAGAGAAACACACGUUGUGGUAUAUUACCUGGCA [U2G U70C]
Output: 0.12

Task: Now this one: GUCCUGUUUCACGUGCGCGCGAAAGAGAGAAGUGAACCAGAGAAACACACGUUGUGGUAUAUUACCUGGUA [C6G U20C]
Output: 0.368

Task: Please answer likewise for GUCCUCUUUCACGUGCGCGUAAAAUAGAGAAGUGAACCAGAGAAACACACGUUGUGGUAUAUUACCUGGUA [G21A G25U]
Output: 0.426

Task: Follow-up item: GUCCUCUUUCACGUGCGCGUGAAUGAGAGAAGUGAACCAGAGAAACACACGUUGUGGUAUAUUACCUGGGA [A24U U70G]
Output: 0.533

Task: What would you report for GUCCUCUUUCACCUGCGCGUGAAAGAGAGAAGUGAACCAGAGAAACAUACGUUGUGGUAUAUUACCUGGUA [G13C C48U] ?
Output: 0.108

Task: What would you report for GUCCUCUUUUACGUGCGCGUGAAAGAGAGAAGUGAACCAGAGAAACACACGUUGUGGUAUAUUACCUCGUA [C10U G68C] ?
Output: 0.229

Task: And then GUCCUCUCUCACGUGCGCGUGUAAGAGAGAAGUGAACCAGAGAAACACACGUUGUGGUAUAUUACCUGGUA [U8C A22U] , what is it?
Output: 0.344

Task: Further, for GUCCUCUUUCACGUGCGCGUGAAAGAGAGAAGUGAUCCAGUGAAACACACGUUGUGGUAUAUUACCUGGUA [A36U A41U] ?
Output: 0.868

Task: What do we get for GUCCUCUUUCACGUGCUCGUGAAAGAGAGAAGUGAACCAGAGAAACACAGGUUGUGGUAUAUUACCUGGUA [G17U C50G] ?
Output: 0.192

Task: Again, but for GUCCUCUUUCACAUGCGCCUGAAAGAGAGAAGUGAACCAGAGAAACACACGUUGUGGUAUAUUACCUGGUA [G13A G19C]
Output: 0.804
